tested.system: 15-hydroxyprostaglandin dehydrogenase [NAD(+)] (Homo sapiens)
protocol.text: qHTS Assay for Inhibitors of HPGD (15-Hydroxyprostaglandin Dehydrogenase); note: potency is the fitted concentration of half-maximal effect
condition.info: purified HPGD, NADH fluorescence kinetic, PGE2 substrate
The whole screen tested about 150,000 compounds, of which about 6,500 (4.3%) were called active. Roughly 12% stayed inconclusive and do not appear here. The entries come from a sample that favours actives as a whole.
reported.metric: Potency

c1ccc(CSc2nnc(-c3ccco3)c(-c3ccco3)n2)cc1
4.47 µM (active)
S=c1[nH]nc2c3c4c(sc3ncn12)CCCC4
20 µM (active)
CCN(CC)S(=O)(=O)c1cccc(-c2n[nH]c(=S)n2/N=C/c2ccc(C(=O)OC)cc2)c1
6.31 µM (active)
COc1cc(NS(=O)(=O)c2ccc(N/C=C(\C=O)c3nc4cc(Cl)ccc4o3)cc2)nc(OC)n1
14.1 µM (active)
Cc1ccc2c(c1)N(C(=O)CCC(=O)N1CCc3ccccc3C1)CCO2
14.1 µM (active)
CCOC(=O)c1nnn(-c2nonc2OC)c1-c1ccccc1
8.91 µM (active)
CCOc1ccc(/C=N/OCC(=O)NCc2cccs2)cc1
15.8 µM (active)
CC(C)(C)c1ccc(Oc2ccc(N)cc2)cc1
28.2 µM (active)

Tested on 15-hydroxyprostaglandin dehydrogenase [NAD(+)] (Homo sapiens): `COc1ccc(CN(C(=O)CSc2nnc(-c3ccc(OC)c(OC)c3)o2)c2ccc(F)cc2)cc1` . Observed Potency: 14.1 µM (active)

Tested on 15-hydroxyprostaglandin dehydrogenase [NAD(+)] (Homo sapiens): `COC(=O)c1ccc(NCC(=O)c2ccccc2)cc1` . Observed Potency: 17.8 µM (active)

Tested on 15-hydroxyprostaglandin dehydrogenase [NAD(+)] (Homo sapiens): `Cc1ccnc(-n2sc3ccccc3c2=O)n1` . Observed Potency: 0.794 µM (active)

Tested on 15-hydroxyprostaglandin dehydrogenase [NAD(+)] (Homo sapiens): `O=C(COc1cccc(F)c1)Oc1ccc(C(=O)c2ccccc2)cc1` . Observed Potency: 7.94 µM (active)

Tested on 15-hydroxyprostaglandin dehydrogenase [NAD(+)] (Homo sapiens): `CCC1=C/C(=C\c2ccc3c(c2)OCO3)C(=O)S1` . Observed Potency: 28.2 µM (active)

---

tested.system: 15-hydroxyprostaglandin dehydrogenase [NAD(+)] (Homo sapiens)
protocol.text: qHTS Assay for Inhibitors of HPGD (15-Hydroxyprostaglandin Dehydrogenase); for activity change, negative = inhibition: % is set by controls: 0 for no effect and ±100 for the full control effect
condition.info: purified HPGD, NADH fluorescence kinetic, PGE2 substrate; active compounds read low
The whole screen tested about 150,000 compounds, of which about 6,500 (4.3%) were called active. Roughly 12% stayed inconclusive and do not appear here. This excerpt belongs to a sample that is enriched for actives.
reported.metric: activity change, negative = inhibition (%)
Give a bare numeral; the unit % is implied.

Look over these answered cases.
O=C(NC(Nc1nc2ccc([N+](=O)[O-])cc2s1)(C(F)(F)F)C(F)(F)F)c1ccccc1
-5.24
O=C(Oc1ccc([N+](=O)[O-])cc1)c1ccc(Cl)c(S(=O)(=O)N2CCCCC2)c1
-21.8
Cc1ccc(C(c2nnnn2CS(=O)(=O)c2ccc(C)cc2)N2CCC(C(N)=O)CC2)cc1 (centres undefined)
-7.21
Cc1cccc(N2Cc3ccccc3C2=NC(=O)c2ccc(Cl)nc2)c1
-15.5
COc1cc(C(=S)N2CCOCC2)cc(OC)c1OC(=O)c1cc([N+](=O)[O-])cc([N+](=O)[O-])c1
-12

Tested on 15-hydroxyprostaglandin dehydrogenase [NAD(+)] (Homo sapiens): CCCCC(NS(=O)(=O)c1ccc(C)cc1)C(=O)Oc1ccc2c3c(c(=O)oc2c1)CCC3 (centres undefined) . Observed activity change, negative = inhibition: -8.04

Tested on 15-hydroxyprostaglandin dehydrogenase [NAD(+)] (Homo sapiens): `CCOC(=O)CNC(=O)CSc1nc2cccnc2n1CC` . Observed activity change, negative = inhibition: -17.6

Tested on 15-hydroxyprostaglandin dehydrogenase [NAD(+)] (Homo sapiens): `COc1ccc(C(=O)Nc2nc(-c3ccc(OC)cc3)c(-c3ccc([N+](=O)[O-])cc3)s2)cc1` . Observed activity change, negative = inhibition: -12.2

Tested on 15-hydroxyprostaglandin dehydrogenase [NAD(+)] (Homo sapiens): `COc1cc(CC(=O)NCc2cccs2)cc(OC)c1OC` . Observed activity change, negative = inhibition: -17
